Reference for the values: patent US20140193415A1

experimental-target: human IGF-1R (soluble, analyte in SPR) (human) (UniProt P08069)
protocol-notes: SPR (ProteOn XPR36), 25 C, Fab captured by anti-Fab, IGF-1R as analyte
readout-kind: koff
Hey, just the number and the unit after it is fine.

Q: Would you mind telling me what koff value was observed for <IGF-1R> L31D7 Fab fragment (affinity-matured <IGF-1R> HUMAB-Clone 18) (Fab, V domains shown) VH: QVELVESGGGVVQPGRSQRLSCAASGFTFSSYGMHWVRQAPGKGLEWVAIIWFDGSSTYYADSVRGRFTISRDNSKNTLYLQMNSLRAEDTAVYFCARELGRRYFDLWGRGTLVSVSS VL: EIVLTQSPATLSLSPGERATLSCRASQSVIQSLAWYQQKPGQAPRLLIYRASKRATGIPARFSGSGSGTDFTLTISSLEPEDFAVYYCQQRSKWPPWTFGQGTKVESK ?
A: 0.000538 s⁻¹
